- assay-remarks: ATG_TGFb_CIS: Attagene CIS-FACTORIAL HepG2 Assay for human Transforming Growth Factor (TGF) (AID 2282967)
- assay-conditions: HepG2 Attagene CIS TGFb reporter, mRNA transcription; actives raise or lower the signal
Activity calls are given as the source filed them. How the source made its calls: active means hit-call score of the fitted dose curve at least 0.9, where 1 is the maximum; inactive means score below 0.9.
# valid calls are active, inactive; nothing else

Ask: What outcome does the record of this test show for O=C1C=CC(=O)O1 ?
Reply: inactive

Ask: What outcome does the record of this test show for CC(C)C1=CC2=CC[C@@H]3[C@](C)(CCC[C@@]3(C)C(=O)O)[C@H]2CC1 ?
Reply: active

Ask: What outcome does the record of this test show for OC1OCCOC1O (stereo not given) ?
Reply: inactive

Ask: What outcome does the record of this test show for CCCCC(CC)COC(=O)c1ccccc1 (stereo not given) ?
Reply: inactive

Ask: What outcome does the record of this test show for O=C1c2cccc(O)c2C(=O)c2c(O)cc(CO)cc21 ?
Reply: inactive

Ask: What outcome does the record of this test show for NC(CO)(CO)CO ?
Reply: inactive

Ask: What outcome does the record of this test show for CC(C)=CCC/C(C)=C\C#N ?
Reply: inactive

Ask: What outcome does the record of this test show for O=C1CC2CC1C1CCCC21 (stereo not given) ?
Reply: inactive

Ask: What outcome does the record of this test show for CC(=O)OCCC1CCCCC1 ?
Reply: inactive

Ask: What outcome does the record of this test show for O=c1n(CCO)c(=O)n(CCO)c(=O)n1CCO ?
Reply: inactive

Ask: What outcome does the record of this test show for CCCOC(=O)CCCCC(=O)OCCC ?
Reply: inactive

Ask: What outcome does the record of this test show for [Cl][Bi]([Cl])([c]1ccccc1)([c]1ccccc1)[c]1ccccc1 ?
Reply: inactive

Ask: What outcome does the record of this test show for C=CC(C)(C)C ?
Reply: inactive

Ask: What outcome does the record of this test show for O=C(O)c1ccccc1Nc1cccc(C(F)(F)F)c1 ?
Reply: inactive

Ask: What outcome does the record of this test show for Cc1cccc(N)n1 ?
Reply: inactive

---

- assay-remarks: ATG_RORE_CIS: Attagene CIS-FACTORIAL HepG2 Assay for human RAR-related Orphan Receptor Element (RORE) (AID 2282959)
- assay-conditions: HepG2 Attagene cis-factorial RORE reporter, mRNA; actives raise or lower the signal
Calls of active or inactive are those of the source. How the source made its calls: active means hit-call score of the fitted dose curve at least 0.9, where 1 is the maximum; inactive means score below 0.9.
# valid calls are y = active, n = inactive; nothing else

Ask: What outcome does the record of this test show for O=C(O)CCCCCCCCCC(=O)O ?
Reply: n

Ask: What outcome does the record of this test show for CO[Si](OC)(OC)c1ccccc1 ?
Reply: n

Ask: What outcome does the record of this test show for O=C(Nc1cccc(C(F)(F)F)c1)c1cc(Br)cc(Br)c1O ?
Reply: y

Ask: What outcome does the record of this test show for CCCC(=O)OCc1ccccc1 ?
Reply: n

Ask: What outcome does the record of this test show for CCCCCC(C)O (configuration not stated) ?
Reply: n

Ask: What outcome does the record of this test show for O=C1Nc2ccccc2C1(c1ccc(O)cc1)c1ccc(O)cc1 ?
Reply: n

Ask: What outcome does the record of this test show for CC(C)(C)c1ccc(N)cc1 ?
Reply: n

Ask: What outcome does the record of this test show for CC[C@H]1OC(=O)[C@H](C)[C@@H](O[C@H]2C[C@@](C)(OC)[C@@H](O)[C@H](C)O2)[C@H](C)[C@@H](O[C@@H]2O[C@H](C)C[C@H](N(C)C)[C@H]2O)[C@](C)(O)C[C@@H](C)C(=NOCOCCOC)[C@H](C)[C@@H](O)[C@]1(C)O ?
Reply: n

Ask: What outcome does the record of this test show for CC(C)COC(=O)C=Cc1ccccc1 ?
Reply: n

Ask: What outcome does the record of this test show for O=C(OCC1CCC2OC2C1)C1CCC2OC2C1 (configuration not stated) ?
Reply: n

Ask: What outcome does the record of this test show for c1ccc(CNCc2ccccc2)cc1 ?
Reply: n

Ask: What outcome does the record of this test show for C=CCCCCCCCCC(=O)OCCCC ?
Reply: n

---

- assay-remarks: ATG_PXRE_CIS: Attagene CIS-FACTORIAL HepG2 Assay for human Pregnane X Receptor Element (PXRE) (AID 2282957)
- assay-conditions: HepG2 Attagene CIS-FACTORIAL PXRE reporter, mRNA; actives raise or lower the signal
Calls of active or inactive are those of the source. How the source made its calls: active means hit-call score of the fitted dose curve at least 0.9, where 1 is the maximum; inactive means score below 0.9.
# valid calls are 1 (active), -1 (inactive); nothing else

Ask: What outcome does the record of this test show for CCC(C)C=O (configuration not stated) ?
Reply: -1

Ask: What outcome does the record of this test show for CC1(C)S[C@@H]2[C@H](NC(=O)COc3ccccc3)C(=O)N2[C@H]1C(=O)O ?
Reply: 1

Ask: What outcome does the record of this test show for O=C1OC(=O)c2cc(Oc3ccc4c(c3)C(=O)OC4=O)ccc21 ?
Reply: -1

Ask: What outcome does the record of this test show for C[C@]12C=CC(=O)C=C1CC[C@@H]1[C@@H]2[C@@H](O)C[C@@]2(C)[C@H]1CC[C@]2(O)C(=O)CO ?
Reply: 1

Ask: What outcome does the record of this test show for C=CC(=O)OCCC(=O)O ?
Reply: -1

Ask: What outcome does the record of this test show for CCCCC/C=C\CCC=O ?
Reply: 1

Ask: What outcome does the record of this test show for CC(CC=O)c1ccccc1 (configuration not stated) ?
Reply: 1

Ask: What outcome does the record of this test show for COCC(C)N (configuration not stated) ?
Reply: 1

Ask: What outcome does the record of this test show for CCOc1nc(F)cc2nc(S(=O)(=O)Nc3c(Cl)cccc3C(=O)OC)nn12 ?
Reply: 1

Ask: What outcome does the record of this test show for C=C(C)[C@@H]1CCC2=CCC[C@@H](C)[C@]2(C)C1 ?
Reply: 1

Ask: What outcome does the record of this test show for CCN(CCC#N)c1ccc(N=Nc2c(Cl)cc([N+](=O)[O-])cc2Cl)cc1 ?
Reply: 1

Ask: What outcome does the record of this test show for Cc1ccc(N/N=c2\c(=O)cc/c(=N/Nc3ccc(S(=O)(=O)O)cc3)c2=O)c(C)c1 ?
Reply: 1

---

- assay-remarks: BSK_3C_uPAR: BioMAP Diversity Plus: 3C Assay for Urokinase-type plasminogen activator receptor (uPAR) Biomarker Activity (AID 2282998)
- assay-conditions: BioMAP 3C HUVEC, uPAR biomarker ELISA; actives raise or lower the signal
Active and inactive are the calls of the source. How the source made its calls: active means hit-call score of the fitted dose curve at least 0.9, where 1 is the maximum; inactive means score below 0.9.
# valid calls are active, inactive; nothing else

Ask: What outcome does the record of this test show for CCCCCCCCCCCCCCCC[N+](C)(C)CC ?
Reply: active

Ask: What outcome does the record of this test show for c1ccc2c(c1)ccc1cc3c(ccc4ccccc43)cc12 ?
Reply: inactive

Ask: What outcome does the record of this test show for CCCCNc1ccc(NCCCC)c2c1C(=O)c1ccccc1C2=O ?
Reply: inactive

Ask: What outcome does the record of this test show for COc1ccc2nc(N)sc2c1 ?
Reply: inactive

Ask: What outcome does the record of this test show for CCCCC(CC)COCC1CO1 (centres undefined) ?
Reply: inactive

Ask: What outcome does the record of this test show for N#[N+]c1ccc2c(S(=O)(=O)[O-])cccc2c1O ?
Reply: inactive

Ask: What outcome does the record of this test show for S=C(NC1CCCCC1)NC1CCCCC1 ?
Reply: inactive

Ask: What outcome does the record of this test show for CC(C)C(=O)C(C)C ?
Reply: inactive

Ask: What outcome does the record of this test show for CCCCCCCCc1ccc(Nc2ccc(CCCCCCCC)cc2)cc1 ?
Reply: inactive

Ask: What outcome does the record of this test show for O=Nc1ccc(O)cc1 ?
Reply: inactive

Ask: What outcome does the record of this test show for C=CC(=O)OCC(Br)CBr (centres undefined) ?
Reply: active

Ask: What outcome does the record of this test show for CCO[Si](CCCN=C=O)(OCC)OCC ?
Reply: inactive

Ask: What outcome does the record of this test show for c1ccc2c(c1)ccc1ncccc12 ?
Reply: active

Ask: What outcome does the record of this test show for CCCCC/C=C\C/C=C\CCCCCCCC(=O)OC ?
Reply: active

---

- assay-remarks: CEETOX_H295R_ANDR: CeeTox H295R High-throughput Steroidogenesis Assay for Androstenedione (ANDR) (AID 2283436);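 further: human H295R adrenal cells exposed for 48 h with androstenedione measured in medium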
- assay-conditions: actives raise or lower the signal
Calls of active or inactive are those of the source. Rule for the calls: active = hit-call score of the fitted dose curve at least 0.9, where 1 is the maximum; inactive = score below 0.9.
property: AC50

Use the examples below as a reference point.
smiles-string | property | reading
COc1ccc2nc(N)sc2c1 | AC50 | inactive
COCc1c(C(C)C)nc(C(C)C)c(/C=C/[C@@H](O)C[C@@H](O)CC(=O)O)c1-c1ccc(F)cc1 | AC50 | 22.4 nM (active)
CCCCNc1ccc(NCCCC)c2c1C(=O)c1ccccc1C2=O | AC50 | inactive
Oc1ccc(Cl)cc1Cc1cc(Cl)ccc1O | AC50 | inactive
CCCCC/C=C\CCC=O | AC50 | inactive

Let us move to another entry and its AC50.
// field: AC50; key: C=COCCCC ; value = inactive

Recorded values, source PubChem BioAssay (EPA / NIEHS).
